EXPERIMENT_NOTES: Plasma pharmacokinetics after single and multiple oral doses (noncompartmental analysis)
Assay type: in vivo, human
APPLIED_CONDITIONS: human, plasma, oral, 200 mg, 200 mg QD, Cycle 1 Day 15, single patient result; read-out: Cmax,ss
ENDPOINT_NAME: Cmax (ng/mL)
Hi! Could you send only the number? It should be in ng/mL, unit omitted.

-- ask For the molecule shown here, COCCNCc1ccc(-c2cc3nccc(Oc4ccc(NC(=O)C5(C(=O)Nc6ccc(F)cc6)CC5)cc4F)c3s2)nc1 [sitravatinib, Sitravatinib] , give the reported Cmax.
-- reply 221

---

EXPERIMENT_NOTES: Plasma pharmacokinetics after single and multiple oral doses (noncompartmental analysis)
Assay type: in vivo, human
APPLIED_CONDITIONS: human, plasma, oral, 200 mg, single dose 200 mg; read-out: Cmax, geometric mean (CV%)
Method: In the PK lead-in period, patients received a single oral dose of sitravatinib (10–200 mg) under fasted conditions with at least 200 mL of water, followed by PK sample collection for 3–7 days, depending on emerging PK information. […] PK samples were collected after a single dose during the PK lead-in period and following multiple oral doses during the study. Plasma PK samples were assayed for quantification of sitravatinib. The lower limit of quantification was 0.05 ng/mL. […]
ENDPOINT_NAME: Cmax (ng/mL)
Hi! Could you send only the number? It should be in ng/mL, unit omitted.

-- ask For the compound shown here, COCCNCc1ccc(-c2cc3nccc(Oc4ccc(NC(=O)C5(C(=O)Nc6ccc(F)cc6)CC5)cc4F)c3s2)nc1 [sitravatinib, Sitravatinib] , give the reported Cmax.
-- reply 85

meta.source: paper PMC9395446
